Source of measurements: PubChem BioAssay (EPA / NIEHS)

# Read-out: urokinase plasminogen activator (uPA), PLAU (gene 5328)
# Measurement Description: BSK_BE3C_uPA: BioMAP Diversity Plus: BE3C Assay for urokinase plasminogen activator (uPA) Biomarker Activity (AID 2283038)
# Study Conditions: primary human bronchial epithelial cells; actives raise or lower the signal
Calls of active or inactive are those of the source. The calls were made as follows: active = hit-call score of the fitted dose curve at least 0.9, where 1 is the maximum; inactive = score below 0.9.
A correct response names exactly one class from active, inactive

Examples from the recorded data:
Molecule | Category Label
Cc1ccc(Nc2ccc(O)c3c2C(=O)c2ccccc2C3=O)cc1 | inactive
CCCCC(CC)COC(=O)/C=C\C(=O)OCC(CC)CCCC (centres undefined) | inactive
CC1COc2ccccc2N1C(=O)C(Cl)Cl (centres undefined) | active

Query :: What call does the record list for c1ccc2sc(SN(C3CCCCC3)C3CCCCC3)nc2c1 ?
Result :: inactive

Query :: What call does the record list for Nc1cc([N+](=O)[O-])ccc1Cl ?
Result :: inactive

Query :: What call does the record list for CCc1c(C)cc(N)c(CC)c1N ?
Result :: inactive

Query :: What call does the record list for CCCCCCCCCCCCCCCCCC(=O)OCC(CC)CCCC (centres undefined) ?
Result :: inactive

Query :: What call does the record list for CC(=O)Nc1ccccc1O ?
Result :: inactive

Query :: What call does the record list for COc1cc(C=O)ccc1OC(=O)C(C)C ?
Result :: inactive

====

# Measurement Description: ATG_CMV_CIS: Attagene CIS-FACTORIAL HepG2 Assay for human CMV (Internal Marker) (AID 2282928);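 also: endpoint acts as a background internal control marker rather than a target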
# Study Conditions: HepG2 CMV promoter reporter, transcription factor profiling; actives raise or lower the signal
The source made the active and inactive calls. The calls were made as follows: active = hit-call score of the fitted dose curve at least 0.9, where 1 is the maximum; inactive = score below 0.9.
A correct response names exactly one class from active, inactive

Examples from the recorded data:
Compound | Category Label
C=CC(C)(O)CCC=C(C)CCC=C(C)C (stereo not given) | active
C=CC[N+](C)(C)CC=C | inactive
CCCCCCOC(=O)CCCCC | inactive

Query :: What call does the record list for CCCCN ?
Result :: inactive

Query :: What call does the record list for O=C(OCc1ccccc1)C(=O)OCc1ccccc1 ?
Result :: inactive

====

# Measured On: Estrogen receptor (Homo sapiens) (UniProt P03372)
# Sequence (P03372 whole entry, looked up): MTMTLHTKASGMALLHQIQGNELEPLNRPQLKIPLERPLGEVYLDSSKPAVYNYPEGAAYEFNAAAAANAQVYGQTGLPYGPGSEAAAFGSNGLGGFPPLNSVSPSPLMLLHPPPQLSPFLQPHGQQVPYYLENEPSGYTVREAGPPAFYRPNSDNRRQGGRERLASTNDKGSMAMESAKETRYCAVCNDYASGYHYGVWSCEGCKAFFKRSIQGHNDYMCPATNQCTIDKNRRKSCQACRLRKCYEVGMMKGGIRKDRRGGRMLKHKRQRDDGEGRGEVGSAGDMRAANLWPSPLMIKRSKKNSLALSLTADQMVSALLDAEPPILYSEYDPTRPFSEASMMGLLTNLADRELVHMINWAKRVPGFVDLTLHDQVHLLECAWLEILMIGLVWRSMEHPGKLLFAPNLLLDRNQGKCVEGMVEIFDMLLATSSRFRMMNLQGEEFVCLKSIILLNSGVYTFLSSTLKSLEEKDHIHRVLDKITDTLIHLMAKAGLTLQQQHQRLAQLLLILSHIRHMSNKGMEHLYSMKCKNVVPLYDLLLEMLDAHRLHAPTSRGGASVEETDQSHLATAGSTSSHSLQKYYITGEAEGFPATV
# Measurement Description: ATG_ERa_TRANS: Attagene TRANS-FACTORIAL HepG2 Assay for human Estrogen Receptor alpha (ERa) (AID 2282970)
# Study Conditions: HepG2 Attagene TRANS ERa GAL4 reporter, mRNA
Results filed as inconclusive are left out. Active and inactive are the calls of the source. How the source made its calls: active means hit-call score of the fitted dose curve at least 0.9, where 1 is the maximum; inconclusive means response in the unintended direction; inactive means score below 0.9.
A correct response names exactly one class from active, inactive

Compound | Measured On | Category Label
C#C[C@]1(O)CC[C@H]2[C@@H]3CCC4=Cc5oncc5C[C@]4(C)[C@H]3CC[C@@]21C | Estrogen receptor (Homo sapiens) (UniProt P03372) | active
NNc1nc(-c2ccc(N)cc2)cs1 | Estrogen receptor (Homo sapiens) (UniProt P03372) | inactive
c1ccc2c(c1)c1cccc3ccc4cccc2c4c31 | Estrogen receptor (Homo sapiens) (UniProt P03372) | inactive
Cc1ccc(C=O)cc1 | Estrogen receptor (Homo sapiens) (UniProt P03372) | inactive
O=C(O)C[C@H](O)C[C@H](O)/C=C/c1c(C2CC2)nc2ccccc2c1-c1ccc(F)cc1 | Estrogen receptor (Homo sapiens) (UniProt P03372) | inactive

Query :: What call does the record list for O=C1O[C@@H]2[C@@H](O)[C@H](O)O[C@@H]2[C@H]1O ?
Result :: inactive

Query :: What call does the record list for O=C(O)COCCN1CCN(C(c2ccccc2)c2ccc(Cl)cc2)CC1 (stereo not drawn) ?
Result :: inactive

Query :: What call does the record list for CCCCCC(=O)OCCc1ccccc1 ?
Result :: inactive

Query :: What call does the record list for CC(C)c1ccc(C(C)C)cc1 ?
Result :: inactive

Query :: What call does the record list for CC1=CCC2C(C1)C2(C)C (stereo not drawn) ?
Result :: active

Query :: What call does the record list for CC(=O)/C=C/C1=C(C)CCCC1(C)C ?
Result :: inactive

Query :: What call does the record list for C=C(C)[C@@H]1CCC2=CC(=O)C[C@@H](C)[C@]2(C)C1 ?
Result :: inactive

====

# Measured On: Hypoxia-inducible factor 1-alpha (Homo sapiens) (UniProt Q16665)
# Sequence (Q16665 whole entry, looked up): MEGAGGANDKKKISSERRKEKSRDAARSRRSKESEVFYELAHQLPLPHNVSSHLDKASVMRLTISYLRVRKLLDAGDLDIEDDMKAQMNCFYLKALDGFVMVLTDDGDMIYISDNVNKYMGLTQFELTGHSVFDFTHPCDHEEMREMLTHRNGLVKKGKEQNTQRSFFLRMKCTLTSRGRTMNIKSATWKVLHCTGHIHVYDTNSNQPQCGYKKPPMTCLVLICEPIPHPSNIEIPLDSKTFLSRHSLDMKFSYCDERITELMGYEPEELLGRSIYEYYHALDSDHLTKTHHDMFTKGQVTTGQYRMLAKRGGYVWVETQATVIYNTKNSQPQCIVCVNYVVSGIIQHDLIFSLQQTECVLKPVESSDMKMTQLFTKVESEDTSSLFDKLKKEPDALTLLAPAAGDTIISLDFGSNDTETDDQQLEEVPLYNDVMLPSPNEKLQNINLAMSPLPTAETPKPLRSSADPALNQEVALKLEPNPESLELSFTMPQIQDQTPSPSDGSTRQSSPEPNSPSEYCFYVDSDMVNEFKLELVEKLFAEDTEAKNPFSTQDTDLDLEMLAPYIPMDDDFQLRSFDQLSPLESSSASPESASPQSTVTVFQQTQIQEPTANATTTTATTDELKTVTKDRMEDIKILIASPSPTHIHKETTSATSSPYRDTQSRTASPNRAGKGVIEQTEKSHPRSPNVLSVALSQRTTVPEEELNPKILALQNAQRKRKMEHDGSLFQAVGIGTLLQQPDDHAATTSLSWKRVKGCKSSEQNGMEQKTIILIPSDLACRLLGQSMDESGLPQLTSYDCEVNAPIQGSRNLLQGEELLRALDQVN
# Measurement Description: ATG_HIF1a_CIS: Attagene CIS-FACTORIAL HepG2 Assay for human Hypoxia Inducible Factor 1 (HIF1A) (AID 2282951)
# Study Conditions: HepG2 Attagene cis-factorial HIF1a reporter transcription; actives raise or lower the signal
# Protocol: ATG_CIS is a cell-based, multiplexed-readout assay that uses HepG2, a human liver cell line, with measurements taken at 24 hours after chemical dosing in a 24-well plate.ATG_HIF1a_CIS is one of 52 assay component(s) measured or calculated from the ATG_CIS assay. […] This assay endpoint, ATG_HIF1a_CIS, was analyzed with bidirectional fitting relative to DMSO as the negative control and baseline of activity. […]
Active and inactive are the calls of the source. How the source made its calls: active means hit-call score of the fitted dose curve at least 0.9, where 1 is the maximum; inactive means score below 0.9.
A correct response names exactly one class from active, inactive

Molecule | Category Label
O=c1[nH]c(=O)n([C@H]2CCCO2)cc1F | inactive
CCCCCCCCCC=O | active
CC(C)[C@@H]1CC[C@@H](C)CC1=O | active
CC(=O)Nc1ccccc1O | inactive
CC(C)c1ccc(C(C)C)cc1 | active
O=C[C@@H](O)[C@H](O)[C@H](O)CO | inactive
c1ccc2c(c1)c1cccc3ccc4cccc2c4c31 | inactive
CCCCCCCCCCCCCOS(=O)(=O)O | inactive

Query :: What call does the record list for CC(C)=CCCC(C)=CCCC(C)=CCO ?
Result :: inactive

Query :: What call does the record list for Clc1sc(Cl)c(Cl)c1Cl ?
Result :: inactive

Query :: What call does the record list for O=C(O)c1ccc([N+](=O)[O-])cc1 ?
Result :: inactive

Query :: What call does the record list for O=C(O)CCSCCC(=O)O ?
Result :: inactive

Query :: What call does the record list for O=C(O)c1snc(Cl)c1Cl ?
Result :: inactive

Query :: What call does the record list for NNc1nc(-c2ccc(N)cc2)cs1 ?
Result :: inactive

====

# Measurement Description: BSK_LPS_SRB: Viability Assessment in the BioMAP Diversity Plus: LPS Assay (AID 2283079);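 also: total protein by sulforhodamine B absorbance as a cytotoxicity measure; measured one day after compound addition; fitted in both directions against DMSO so loss or gain of signal counts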
# Study Conditions: primary human HUVEC with PBMC
Activity calls are given as the source filed them. Rule for the calls: active = hit-call score of the fitted dose curve at least 0.9, where 1 is the maximum; inactive = score below 0.9.
A correct response names exactly one class from label 1 for active, label 0 for inactive

Examples from the recorded data:
Molecule | Category Label
CCCCCCCCCCCCCCCCCC(=O)OCC(CC)CCCC (stereo not drawn) | label 0
CCCCCCCCCC=O | label 0
Nc1cc([N+](=O)[O-])ccc1O | label 0
CCCCC(CC)COCCC#N (stereo not drawn) | label 0
CC1CCC(C(C)CS)CC1S (stereo not drawn) | label 1

Query :: What call does the record list for CC(=O)O[C@]1(C(C)=O)CC[C@H]2[C@@H]3C[C@H](C)C4=CC(=O)CC[C@]4(C)[C@H]3CC[C@@]21C ?
Result :: label 0

Query :: What call does the record list for O=C(O)c1cn(-c2ccc(F)cc2)c2cc(N3CCNCC3)c(F)cc2c1=O ?
Result :: label 0

Query :: What call does the record list for OC[C@H]1O[C@H](O[C@]2(CCl)O[C@H](CCl)[C@@H](O)[C@@H]2O)[C@H](O)[C@@H](O)[C@H]1Cl ?
Result :: label 0

====

# Read-out: Vascular cell adhesion molecule 1 (VCAM1), VCAM1 (gene 7412)
# Measurement Description: BSK_MyoF_VCAM1: BioMAP Diversity Plus: MyoF Assay for Vascular cell adhesion molecule 1 (VCAM1) Biomarker Activity (AID 2284231)
# Study Conditions: primary human lung fibroblasts
Calls of active or inactive are those of the source. The calls were made as follows: active = hit-call score of the fitted dose curve at least 0.9, where 1 is the maximum; inactive = score below 0.9.
A correct response names exactly one class from yes = active, no = inactive

Examples from the recorded data:
Compound | Category Label
CN(CCOc1ccc(CC2SC(=O)NC2=O)cc1)c1ccccn1 (stereo unspecified) | yes
BrC1CCC(Br)C(Br)CCC(Br)C(Br)CCC1Br (stereo unspecified) | no
CC(=O)O[C@]1(C(C)=O)CC[C@H]2[C@@H]3C[C@H](C)C4=CC(=O)CC[C@]4(C)[C@H]3CC[C@@]21C | no

Query :: What call does the record list for CCCCCCCCCC=O ?
Result :: no

Query :: What call does the record list for C=C(C)C(=O)O[C@H]1C[C@@H]2CC[C@@]1(C)C2(C)C ?
Result :: yes

Query :: What call does the record list for CCn1c2ccccc2c2cc(N)ccc21 ?
Result :: no

====

# Measurement Description: BSK_3C_Proliferation: Cell Proliferation Assessment in the BioMAP Diversity Plus: 3C Assay (AID 2283006);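 as to AC50: potency may reflect either rise or fall in cell number versus DMSO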
# Study Conditions: primary human endothelial cells (HUVEC)
Active and inactive are the calls of the source. The calls were made as follows: active = hit-call score of the fitted dose curve at least 0.9, where 1 is the maximum; inactive = score below 0.9.
Measured Quantity: AC50

Compound Structure | Measured Quantity | Measured
O=C(O)C[C@H](O)C[C@H](O)/C=C/c1c(C2CC2)nc2ccccc2c1-c1ccc(F)cc1 | AC50 | 1950 nM (active)
O=[N+]([O-])c1cc(C(F)(F)F)ccc1Cl | AC50 | inactive
Nc1cc([N+](=O)[O-])ccc1O | AC50 | inactive
CCCCCCCCC=O | AC50 | inactive
